Entries and their IC50
Target: CHO [hCOX-2] (Homo sapiens, UniProt P35354)
Construct: expressed in transfected cells; host or cells: CHO cells, stably transfected with pCDNAIII
Sequence (P35354 18-604): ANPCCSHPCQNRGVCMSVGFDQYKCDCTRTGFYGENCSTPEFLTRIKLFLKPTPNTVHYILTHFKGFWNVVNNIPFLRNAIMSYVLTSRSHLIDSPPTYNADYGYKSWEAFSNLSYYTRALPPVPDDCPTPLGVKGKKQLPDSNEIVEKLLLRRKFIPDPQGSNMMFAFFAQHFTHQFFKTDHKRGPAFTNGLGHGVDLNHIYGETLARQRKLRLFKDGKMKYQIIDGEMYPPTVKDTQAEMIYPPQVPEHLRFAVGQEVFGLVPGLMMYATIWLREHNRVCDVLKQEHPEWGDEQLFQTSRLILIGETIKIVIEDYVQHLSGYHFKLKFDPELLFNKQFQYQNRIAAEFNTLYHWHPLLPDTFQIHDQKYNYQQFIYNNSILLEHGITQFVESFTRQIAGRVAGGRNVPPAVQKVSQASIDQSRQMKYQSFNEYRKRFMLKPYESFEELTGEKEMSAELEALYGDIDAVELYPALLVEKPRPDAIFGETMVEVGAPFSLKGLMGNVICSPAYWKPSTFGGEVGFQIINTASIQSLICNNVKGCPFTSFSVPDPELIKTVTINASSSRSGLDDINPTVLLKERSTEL
Assay: Whole cell assay for COX-2 using CHO transfected cell line (PGE2 synthesis)
Format: cell-based
Settings: Table IV; CHO[hCOX-2] cells, 10 µM AA; read-out: COX-2(IC50, µM) CHO

smiles input: CC1(C)OC(=O)C(Oc2ccc3ncccc3c2)=C1c1ccc(S(C)(=O)=O)cc1
target entity: CHO [hCOX-2] (Homo sapiens, UniProt P35354)
qualifier: =
IC50 / µM: 1.8
//
smiles input: CC1(C)OC(=O)C(Oc2ccc([N+](=O)[O-])cn2)=C1c1ccc(S(C)(=O)=O)cc1
target entity: CHO [hCOX-2] (Homo sapiens, UniProt P35354)
qualifier: >
IC50 / µM: 5
//
smiles input: COc1ccc(OC2=C(c3ccc(S(C)(=O)=O)cc3)C(C)(C)OC2=O)cc1Cl
target entity: CHO [hCOX-2] (Homo sapiens, UniProt P35354)
qualifier: =
IC50 / µM: 0.39

----------
Biological target: COX-2 (Homo sapiens)
Experiment: Assay of the activity of purified human COX-2 (TMPD chromogenic assay)
Format: biochemical
Parameters: made in house; host or cells: Sf9 cells
Conditions: Table IV; purified enzyme, TMPD oxidation; read-out: COX-2(IC50, µM) TMPD

compound: CC1(C)OC(=O)C(Oc2cccc(N)n2)=C1c1ccc(S(C)(=O)=O)cc1
unit of measurement: µM
IC50: 47
//
compound: CC[C@@]1(C)OC(=O)C(Oc2ccc(Cl)cn2)=C1c1ccc(S(C)(=O)=O)cc1
unit of measurement: µM
IC50: 4
//
compound: CC[C@@]1(C)OC(=O)C(OC(C)C2CC2)=C1c1ccc(S(C)(=O)=O)cc1 (some centres unmarked)
unit of measurement: µM
IC50: 3.1
//
compound: CC1(C)OC(=O)C(Oc2cccc(C(F)(F)F)c2)=C1c1ccc(S(C)(=O)=O)cc1
unit of measurement: µM
IC50: 11
//
compound: CC[C@@]1(C)OC(=O)C(Oc2ccc(Br)cc2)=C1c1ccc(S(C)(=O)=O)cc1
unit of measurement: µM
IC50: 1.7
//
compound: CC1(C)OC(=O)C(Oc2ccc3ncccc3c2)=C1c1ccc(S(C)(=O)=O)cc1
unit of measurement: µM
IC50: 43
//
compound: C[C@]1(CC(F)(F)F)OC(=O)C(Oc2ccc(Cl)cn2)=C1c1ccc(S(C)(=O)=O)cc1
unit of measurement: µM
IC50: 7.9
//
compound: Cc1ccc(OC2=C(c3ccc(S(C)(=O)=O)cc3)C(C)(C)OC2=O)cn1
unit of measurement: µM
IC50: 3.3

All values here come from patent EP0863891B1.
